The following are reported pIC50 results, target or system Cytochrome P450 3A4 (Homo sapiens).
Recall that pIC50 is obtained by taking minus log10 of the concentration measured in molar.

Task item: Give pIC50 for OC(CN1CCN(CCCn2ccc3cc(Br)ccc32)CC1)(Cn1cncn1)c1ccc(F)cc1F (configuration not stated) tested on Cytochrome P450 3A4 (Homo sapiens).
Sequence (P08684 whole entry): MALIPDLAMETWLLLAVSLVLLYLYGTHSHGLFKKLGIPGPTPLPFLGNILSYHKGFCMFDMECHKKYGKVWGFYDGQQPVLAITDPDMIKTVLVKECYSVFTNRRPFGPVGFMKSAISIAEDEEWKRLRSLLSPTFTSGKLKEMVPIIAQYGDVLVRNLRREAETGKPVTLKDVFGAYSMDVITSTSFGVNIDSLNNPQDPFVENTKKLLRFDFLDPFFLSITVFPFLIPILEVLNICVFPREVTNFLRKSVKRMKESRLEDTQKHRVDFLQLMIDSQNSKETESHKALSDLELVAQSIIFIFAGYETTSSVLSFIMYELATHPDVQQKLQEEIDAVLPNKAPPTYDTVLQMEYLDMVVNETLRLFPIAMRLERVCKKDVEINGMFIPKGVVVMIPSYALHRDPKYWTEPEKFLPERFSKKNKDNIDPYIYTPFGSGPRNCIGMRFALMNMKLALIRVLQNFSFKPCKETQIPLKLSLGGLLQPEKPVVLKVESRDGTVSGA
Reply: 6.89

Task item: Give pIC50 for `O[C@@](CN1CCN(CCn2ccc3cc(Br)ccc32)CC1)(Cn1cncn1)c1ccc(F)cc1F` tested on Cytochrome P450 3A4 (Homo sapiens).
Reply: 6.40

###

experiment: Half life in Sprague-Dawley rat at 2 mg/kg, iv measured at 0.08 to 24 hrs by LC-MS/MS analysis; format: ADME, organism-based; details: in vivo, time 0.08-24 hrs
reported.metric: half-life
Mention the unit after the number when you answer.

Task item: Using known records, supply half-life for `O[C@@](CN1CCN(CCn2ccc3cc(Br)ccc32)CC1)(Cn1cncn1)c1ccc(F)cc1F`
Reply: 1.04 h
